Settings: buffer; pH 7.4; 200.0 µM
Lab note: anything with solubility kinetic at or over 20 µg/mL counts as Condition met; the rest go in Condition not met.

# molecule, class-assignment
rows = [
    ("O=[N+]([O-])c1ccccc1OCCCOc1cccc2cccnc12", "Condition not met"),
    ("COc1ccc(S(=O)(=O)NCCc2ccccc2)c2cccnc12", "Condition met"),
    ("Cc1nc(NC(=O)CSc2nncs2)c(Cl)cc1Cl", "Condition met"),
    ("O=C(Cc1c(F)cccc1Cl)OCC(=O)N1CCc2ccccc21", "Condition not met"),
    ("COc1ccc(NC(=O)COC(=O)CCC2CCCCC2)cc1", "Condition not met"),
    ("CCCCc1ccc(NC(=S)N2CCN(C)CC2)cc1", "Condition met"),
    ("CNc1nc(Cl)c(SC)c(NCc2cccc(OC)c2)n1", "Condition not met"),
    ("O=C1CN(S(=O)(=O)c2cccc(C(=O)O)c2)c2ccccc2N1", "Condition met"),
    ("N#Cc1c(N)n(-c2ccc(C(=O)O)cc2)c2nc3ccccc3nc12", "Condition met"),
    ("CCC(=O)N1CCN(c2ccnc3cc(Cl)ccc23)CC1", "Condition met"),
    ("O=C(NCc1ccco1)c1ccc2[nH]c(=O)c(=O)[nH]c2c1", "Condition met"),
    ("O=C(/C=C/c1ccc(OCCCF)cc1)N1CCOCC1", "Condition met"),
    ("NC(=O)c1ccc(Oc2ccc3c(c2)CCC3)c([N+](=O)[O-])c1", "Condition not met"),
    ("CN1CCN(C(=O)c2ccc(-c3cccs3)s2)CC1", "Condition met"),
    ("O=S(=O)(Cc1noc(-c2ccc(Cl)cc2)n1)Cc1ccco1", "Condition not met"),
    ("CC(NC(=O)c1cccs1)c1ccc(Cl)cc1 (centres undefined)", "Condition not met"),
    ("CCN(C(=O)COC(=O)CN1C(=O)c2ccccc2C1=O)c1ccccc1", "Condition met"),
    ("NC(=O)c1ccsc1NC(=O)CSc1nnc2ccccn12", "Condition met"),
    ("c1ccc(SCc2cn3cccnc3n2)nc1", "Condition met"),
    ("CNC(=O)Nc1ccccc1C(=O)Nc1ccccc1", "Condition met"),
    ("C/C(=N\\O)C(C)(C)Nc1ccc(F)cc1", "Condition met"),
    ("Cc1ccc(-c2nc(CNC(=O)c3ccco3)cs2)cc1", "Condition met"),
    ("Cc1cccc(C(=O)Nc2cccc3cccnc23)c1", "Condition not met"),
    ("CN1C(=O)/C(=C/C=C2\\SCCN2C)OC1=S", "Condition not met"),
    ("COc1ccc(N2C(=O)CC(SCc3ccc(Cl)cc3)C2=O)cc1 (centres undefined)", "Condition not met"),
    ("COc1ccc(CNC(=O)COc2cccnc2[N+](=O)[O-])cc1", "Condition met"),
    ("Cc1csc(NC(=O)Cn2nc(C)c([N+](=O)[O-])c2C)n1", "Condition met"),
    ("O=C(O)[C@H]1Cc2ccccc2CN1S(=O)(=O)c1ccc(F)cc1", "Condition met"),
    ("O=C(c1cc(S(=O)(=O)N2CCOCC2)c(Cl)cc1Cl)N1CCN(S(=O)(=O)c2cccc(F)c2)CC1", "Condition met"),
    ("O=C(c1ccccc1)C(C(=O)N1CCCCC1)n1ccccc1=O (centres undefined)", "Condition met"),
    ("NC(=O)NC(=O)CN1c2cccc3cccc(c23)S1(=O)=O", "Condition not met"),
    ("C=CCNc1nc(N)c([N+](=O)[O-])c(Nc2ccccc2OC)n1", "Condition not met"),
    ("O=C(NCCCn1ccnc1)c1cc2c(s1)CCCC2", "Condition met"),
    ("CCn1c(NC(C)=O)c(-c2ccccc2Cl)c(=O)c2ccccc21", "Condition met"),
    ("CC(=O)Nc1ccc(S(=O)(=O)Nc2ccc3c(c2)OCO3)cc1", "Condition met"),
    ("COc1cc(NC(=O)c2cc(C)no2)cc(OC)c1OC", "Condition met"),
    ("CCOc1ccc(NC(=O)NC(C)c2ccc3c(c2)OCO3)cc1 (centres undefined)", "Condition not met"),
    ("CC(C)(C)S(=O)(=O)/C(C#N)=C/Nc1ccccn1", "Condition met"),
    ("COc1ccc(C2SCC(=O)N2c2ccc(F)cc2)cc1 (centres undefined)", "Condition met"),
    ("Cc1ccccc1NC(=O)CCCCC(=O)Nc1ccccc1C", "Condition not met"),
    ("Cc1nn(CC(=O)NCc2ccccc2)c(=O)c2cccn12", "Condition met"),
    ("CC1(C)CC(=O)C2=C(C1)OC(N)=C(C#N)C2c1ccoc1 (centres undefined)", "Condition met"),
    ("O=c1[nH]cccc1-c1nc2ccccc2n1Cc1cccc(F)c1", "Condition not met"),
    ("Cc1c(Cl)cccc1NC(=O)CSC(N)=O", "Condition not met"),
    ("COc1ccccc1CN1CCCCCC1.O=C(O)C(=O)O", "Condition met"),
    ("Fc1cccc(NC(=S)Nc2cccnc2)c1", "Condition met"),
    ("Cc1nc(N2CCOCC2)c2c3c(sc2n1)CCC3", "Condition met"),
    ("CN(C)C(C)(C)/C=C/C(O)(c1ccccc1)c1ccccc1", "Condition met"),
    ("O=C(NC1CCCCC1)c1ccc(N2CCOCC2)c([N+](=O)[O-])c1", "Condition met"),
]

The reported numbers originate from PubChem BioAssay AID1996.
